# Experimental system: T1, TNF-beta (human, UniProt P01374 35-205)
# T1 construct: also called TNFβ; Tumour Necrosis Factor-beta
# T1 sequence (looked up): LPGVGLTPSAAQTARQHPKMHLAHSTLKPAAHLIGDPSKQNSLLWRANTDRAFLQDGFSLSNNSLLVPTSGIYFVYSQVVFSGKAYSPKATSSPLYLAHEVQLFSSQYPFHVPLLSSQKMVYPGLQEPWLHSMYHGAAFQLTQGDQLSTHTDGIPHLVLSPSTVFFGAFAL
# Test summary: phage ELISA
Value type: binding result

- I002A01-R (scFv) scFv: QVQLVQSGAEVKKPGSSVKVSCRASGGSFNRHAISWVRQAPGRGLEWMGGILPMYGTANYAQKFQGRVTITADKLTNTVYMDLSRLRYEDTAVYYCARELGLSIVGATTGALDMWGKGTLVTVSSGGGGSGGGGSGGGGSALPVLTQPPSVSVAPGQTATLTCGGTNFGRQSVHWYQQKPGQAPVLAIYHDDVRPSGIPERLSGSKSGNTATLTISRVEAGDEAAYYCQVWDSGSDVVVFGGGTKLTVLG: no binding
- I068C06 (scFv, also called I0068C06; I0068CO6) scFv: EVQLVQSGAEVKKPGSSVKVSCKASGGTVSSRTISWVRQAPGQGLEWMGGSLPPSGAPIYAQKFQGRVAITADALTNTAFMELRSLKSDDTAVYYCARDQGRYLDLWGKGTLVTVSSGGGGSGGGGSGGGGSAQAVLTQPSSVSGAPGQRVTISCTGSRSNIGAGYDVHWYQQLPGTAPKLLIYGNSNRPSGVPDRFSGSKSGTSASLAITGLQADDEADYYCQSYDTSLRGLFGTGTKVTVLG: no binding
- I018C10 (scFv) scFv: GVQLVQSGPEVKKPGASVKVSCTASGYTFTSYGVSWVRQAPGQGLEWIGWISAHNGQTKYAEKFQGRVTMTRNTSISTAYMELSSLRSEDTVVYYCARDGSYDILTGYYIDNYMDVWGKGTMVTVSSGGGGSGGGGSGGGGSSELTQDPAVSVALGQTVRITCQGDSLRSYYTNWFQQKPGQAPLLVVYAKNKRPSGIPDRFSGSSSGNTASLTITGAQAEDEADYYCHSRDSSGNHVLFGGGTKLTVLG: no binding
